Could you please report measured Dmax for the items listed next?
TARGET_SYSTEM: SMARCA2-HiBiT (Homo sapiens, UniProt P51531)
Construct: SMARCA2-HiBiT knock-in Hela monoclonal cell (CS302366); host or cells: HeLa monoclonal knock-in line (CRISPR HiBiT knock-in at the endogenous locus, heterozygous)
Sequence (P51531 whole entry): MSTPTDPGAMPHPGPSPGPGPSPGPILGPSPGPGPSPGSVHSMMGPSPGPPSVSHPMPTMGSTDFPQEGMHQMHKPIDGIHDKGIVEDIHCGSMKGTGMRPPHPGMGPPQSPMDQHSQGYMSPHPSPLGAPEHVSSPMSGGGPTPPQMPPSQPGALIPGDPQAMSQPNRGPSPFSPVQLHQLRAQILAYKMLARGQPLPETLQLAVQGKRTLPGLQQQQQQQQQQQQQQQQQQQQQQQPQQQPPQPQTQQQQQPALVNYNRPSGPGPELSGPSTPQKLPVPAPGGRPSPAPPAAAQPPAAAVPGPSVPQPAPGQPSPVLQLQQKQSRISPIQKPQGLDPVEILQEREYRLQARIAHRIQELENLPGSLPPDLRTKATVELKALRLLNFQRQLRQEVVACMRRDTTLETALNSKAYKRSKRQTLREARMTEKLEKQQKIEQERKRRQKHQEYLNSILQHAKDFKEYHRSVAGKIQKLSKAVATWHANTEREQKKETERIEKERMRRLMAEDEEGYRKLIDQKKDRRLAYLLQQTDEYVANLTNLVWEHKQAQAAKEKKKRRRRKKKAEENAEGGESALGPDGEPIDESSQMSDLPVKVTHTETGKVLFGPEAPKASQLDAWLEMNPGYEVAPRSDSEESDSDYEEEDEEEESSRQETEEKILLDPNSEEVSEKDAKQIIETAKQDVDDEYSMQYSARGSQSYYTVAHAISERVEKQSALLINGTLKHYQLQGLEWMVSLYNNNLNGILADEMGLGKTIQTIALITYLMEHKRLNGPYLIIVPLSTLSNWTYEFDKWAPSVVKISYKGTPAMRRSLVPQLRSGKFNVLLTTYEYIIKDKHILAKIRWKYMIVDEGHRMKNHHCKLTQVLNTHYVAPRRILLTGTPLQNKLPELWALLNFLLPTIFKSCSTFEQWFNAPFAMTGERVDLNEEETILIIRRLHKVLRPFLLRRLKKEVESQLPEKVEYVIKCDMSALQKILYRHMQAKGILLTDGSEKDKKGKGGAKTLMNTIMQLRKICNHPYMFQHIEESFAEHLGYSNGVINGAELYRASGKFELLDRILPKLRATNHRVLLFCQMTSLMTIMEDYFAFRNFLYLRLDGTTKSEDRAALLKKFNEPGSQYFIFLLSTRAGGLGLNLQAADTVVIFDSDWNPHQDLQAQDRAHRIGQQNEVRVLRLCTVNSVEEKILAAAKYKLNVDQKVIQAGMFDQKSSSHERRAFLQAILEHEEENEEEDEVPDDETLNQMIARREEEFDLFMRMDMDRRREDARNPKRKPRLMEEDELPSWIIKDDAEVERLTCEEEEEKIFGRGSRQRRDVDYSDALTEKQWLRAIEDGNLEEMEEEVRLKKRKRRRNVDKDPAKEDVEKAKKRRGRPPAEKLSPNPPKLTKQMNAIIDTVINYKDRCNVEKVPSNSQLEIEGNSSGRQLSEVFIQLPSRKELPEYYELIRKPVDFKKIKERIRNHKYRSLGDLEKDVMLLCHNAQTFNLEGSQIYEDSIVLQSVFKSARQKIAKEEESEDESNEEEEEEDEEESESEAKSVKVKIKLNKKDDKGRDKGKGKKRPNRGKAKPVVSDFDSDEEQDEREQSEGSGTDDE
PROTOCOL_SUMMARY: SMARCA2 HiBiT degradation assay in HeLa cells
Format: cell-based
EXPERIMENTAL_CONDITIONS: HeLa, 18 hours incubation, read-out: HeLa-HiBit-SM2 Dmax (%)

Prompt line: # get_value(readout='Dmax', item= O=C1CCC(N2C(=O)c3ccc(N4CCC(CCN5CCC(CN6CCN7c8cc(-c9ccccc9O)nnc8NC[C@H]7C6)CC5)CC4)cc3C2=O)C(=O)N1 (stereo partly shown) )
Response line: 75 to 85%

Prompt line: Any idea what its Dmax is? The molecule is C[C@H]1CN2c3cc(-c4ccccc4O)nnc3NC[C@H]2CN1C[C@H]1[C@@H]2CN(CC3CCN(c4ccc5c(c4)CN(C4CCC(=O)NC4=O)C5=O)CC3)C[C@@H]21 (stereo partly shown)
Response line: 50 to 75%

Prompt line: Record request: Dmax value, item O=C1CCC(N2Cc3ccc(N4CCC(CN5CCC(OC(=O)N6CCN7c8cc(-c9ccccc9O)nnc8NC[C@H]7C6)CC5)CC4)cc3C2=O)C(=O)N1 (stereo partly shown)
Response line: > 85%

Prompt line: # query: Dmax of entry O=C1CCC(N2C(=O)c3ccc(N4CCC(CN5CCC(CN6CCN7c8cc(-c9ccccc9O)nnc8NC[C@H]7C6)C5)CC4)cc3C2=O)C(=O)N1 (stereo partly shown)
Response line: > 85%

Prompt line: Name the reported Dmax value associated with the molecule O=C1CCC(N2Cc3ccc(N4CCC(CN5CCN(C(=O)N6CCN7c8cc(-c9ccccc9O)nnc8NC[C@H]7C6)CC5)CC4)cc3C2=O)C(=O)N1 (stereo partly shown)
Response line: > 85%

Prompt line: Give the measured Dmax of O=C1CCC(N2C(=O)c3ccc(N4CC[C@H](CN5CCC(C(=O)N6CCN7c8cc(-c9cc(F)ccc9O)nnc8NC[C@H]7C6)CC5)[C@@H](F)C4)cc3C2=O)C(=O)N1 (stereo partly shown) .
Response line: > 85%

Prompt line: Consider the molecule shown here: O=C1CCC(N2C(=O)c3cccc(N4CCC(CCCN5CCC6(CCC(N7CCN8c9cc(-c%10ccccc%10O)nnc9NC[C@H]8C7)CC6)CC5)CC4)c3C2=O)C(=O)N1 (stereo partly shown) What is its recorded Dmax?
Response line: 75 to 85%

Prompt line: Look up Dmax: C[C@H]1CN2c3cc(-c4ccccc4O)nnc3NC[C@H]2CN1C[C@H]1[C@@H]2CN(CC3CCN(c4ccc5c(c4)C(=O)N(C4CCC(=O)NC4=O)C5=O)C[C@@H]3F)C[C@@H]21 (stereo in doubt)
Response line: > 85%

Prompt line: Dmax for O=C1CCC(N2Cc3ccc(N4CCC(CN5CCC(CN6CCN7c8cc(-c9ccccc9O)nnc8NC[C@H]7C6)CC5CO)CC4)cc3C2=O)C(=O)N1 (stereo partly shown) ?
Response line: > 85%

Prompt line: Consider the molecule O=C1CCC(N2Cc3ccc(N4CC[C@H](CN5CCC(C(=O)N6CCN7c8cc(-c9ccccc9O)nnc8NC[C@H]7C6)CC5)[C@@H](F)C4)cc3C2=O)C(=O)N1 (stereo partly shown) and give its measured Dmax.
Response line: > 85%

Prompt line: Please give the measured Dmax for this molecule: CC12CNc3nnc(-c4ccccc4O)cc3N1CCN(C1CCN(CCCc3ccc4c(c3)c3cccnc3n4C3CCC(=O)NC3=O)CC1)C2 (stereo not shown)
Response line: > 85%

Prompt line: Which Dmax value is on record for CC(C)(C)C(=O)OCN1C(=O)CCC(N2C(=O)c3ccc(N4CCC(CN5CCC(CN6CCN7c8cc(-c9ccccc9O)nnc8NC[C@H]7C6)CC5)CC4)cc3C2=O)C1=O (stereo partly shown) ?
Response line: > 85%

Prompt line: Recorded Dmax of O=C1CCC(N2C(=O)c3ccc(N4CCC(CN5CCC(S(=O)(=O)N6CCN7c8cc(-c9ccccc9O)nnc8NC[C@H]7C6)CC5)CC4)cc3C2=O)C(=O)N1 (stereo partly shown) , please.
Response line: 50 to 75%

Prompt line: Would you mind telling me what Dmax value was observed for CC(C1CCN(c2ccc3c(c2)C(=O)N(C2CCC(=O)NC2=O)C3=O)CC1)N1CCC(CCCN2CCN3c4cc(-c5ccccc5O)nnc4NC[C@H]3C2)CC1 (stereo partly shown) ?
Response line: > 85%

Prompt line: What measured Dmax goes with O=C1CCC(N2C(=O)c3ccc(N4CCC(CN5C[C@@H]6[C@H](C5)[C@H]6CN5CCN6c7cc(-c8ccccc8O)nnc7NC[C@H]6C5)CC4)cc3C2=O)C(=O)N1 (stereo partly shown) ?
Response line: > 85%

Prompt line: Could you tell me which Dmax is on file for C[C@H]1CN(CC2CCN(c3ccc4c(c3)C(=O)N(C3CCC(=O)NC3=O)C4)CC2)CCN1C(=O)N1CCN2c3cc(-c4ccccc4O)nnc3NC[C@H]2C1 (stereo partly shown) ?
Response line: > 85%

Prompt line: Would you mind telling me what Dmax value was observed for O=C1CCC(N2C(=O)c3ccc(N4CCC(CNC5CCN(C(=O)N6CCN7c8cc(-c9ccccc9O)nnc8NC[C@H]7C6)CC5)CC4)cc3C2=O)C(=O)N1 (stereo partly shown) ?
Response line: 75 to 85%

Prompt line: Quick one: Dmax of O=C1CCC(N2C(=O)c3ccc(N4CCC(CN5CC6CC5CC6CN5CCN6c7cc(-c8ccccc8O)nnc7NC[C@H]6C5)CC4)cc3C2=O)C(=O)N1 (stereo partly shown) ?
Response line: > 85%

Prompt line: # get_value(readout='Dmax', item= CC1CN(c2ccc3c(c2)C(=O)N(C2CCC(=O)NC2=O)C3=O)CCC1CN1CCC(CN2CCN3c4cc(-c5ccccc5O)nnc4NC[C@H]3C2)CC1 (stereo partly shown) )
Response line: > 85%

Prompt line: Quick one: Dmax of O=C1CCC(N2C(=O)c3ccc(N4CCC(CN5CCC(CN6CCN7c8cc(-c9ccccc9O)nnc8NC[C@H]7C6)CC5)CC4)cc3C2=O)C(=O)N1COP(=O)(O)O (stereo partly shown) ?
Response line: > 85%

Prompt line: What value of Dmax has been recorded for this entry: CC(COc1ccc2c(c1)CN([C@@H]1CCC(=O)NC1=O)C2=O)N1CCC(N2CCN3c4cc(-c5ccccc5O)nnc4NC[C@H]3C2)CC1 (stereo partly shown)
Response line: 50 to 75%

Prompt line: Need Dmax of O=C1CCC(N2C(=O)c3cc(F)c(N4CCC(CN5CC6CCC(C5)C6CN5CCN6c7cc(-c8ccccc8O)nnc7NC[C@H]6C5)CC4)cc3C2=O)C(=O)N1 (stereo partly shown) , thanks.
Response line: 75 to 85%
